- Study Target: glucocorticoid receptor (GR) recombinant ligand binding domain (LBD) (Homo sapiens (Human), UniProt P04150)
- Sequence (P04150 524-758): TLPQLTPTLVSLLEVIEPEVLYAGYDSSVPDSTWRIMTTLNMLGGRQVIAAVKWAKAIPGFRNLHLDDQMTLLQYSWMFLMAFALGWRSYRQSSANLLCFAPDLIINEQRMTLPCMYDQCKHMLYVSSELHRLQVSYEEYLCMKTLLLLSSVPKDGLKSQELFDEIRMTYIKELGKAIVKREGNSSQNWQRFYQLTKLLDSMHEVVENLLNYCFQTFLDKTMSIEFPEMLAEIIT
- Procedure Text: GR binding fluorescence polarisation (FP) assay
- Settings: displacement of fluorescently tagged ligand
Measurement Kind: IC50 (nM)

Field: example entries. Status: answers known.
Cc1cc2c(cnn2-c2ccc(F)cc2)cc1N1CC[C@H](NS(C)(=O)=O)C1 : 7
Cc1cc2c(cnn2-c2ccc(F)cc2)cc1C1(Cc2ccccc2)CCN(C(=O)c2cscn2)C1 (stereo not drawn) : 12
Cc1cc2c(cnn2-c2ccc(F)cc2)cc1N1CC[C@@H](NS(C)(=O)=O)C1 : 48
CCCn1cc(S(=O)(=O)N2CCN(c3cc4cnn(-c5ccc(F)cc5)c4cc3C)C(=O)C2)cn1 : 3900
Cc1cc2c(cnn2-c2ccc(=O)n(C)c2)cc1C1(Cc2ccccc2)CCN(S(=O)(=O)c2ccc(C(F)(F)F)nc2)C1 (stereo not drawn) : 14

(P) CCc1cc(-n2ncc3cc(C4(Cc5ccccc5)CCN(S(=O)(=O)c5cnn(C)n5)C4)c(C)cc32)cn(C)c1=O (stereo not drawn)
(Q) Cc1cc2c(cnn2-c2cc(F)c(=O)n(C)c2)cc1C1(Cc2ccccc2)CCN(S(=O)(=O)c2cnn(C)n2)C1 (stereo not drawn)
P or Q : whose IC50 is greater? Mark your answer with the label of the selected entry.
P
(P: 110 nM, Q: 6.3 nM)

(I) Cc1nn(C2CCCC2)cc1S(=O)(=O)N1CCN(c2ccc3c(cnn3-c3ccc(F)cc3)c2)C[C@H]1C
(II) COCCN([C@@H]1CCN(c2cc3cnn(-c4ccc(F)cc4)c3cc2C)C1)S(=O)(=O)c1cnn(C)c1
// which entry reports the smaller IC50, I or II ? API: response body contains the label of the selected item.
II
(II: 40 nM, I: 142 nM)

(A) Cc1cc2c(cnn2-c2ccc(F)cc2)cc1C1(Cc2ccccc2)CCN(Cc2ccccc2)C1=O (stereo not drawn)
(B) Cc1cc2c(cnn2-c2ccc(F)cc2)cc1N1CC[C@H](NS(=O)(=O)c2cnn(C)c2)C1
Looking only at measured IC50, which entry is lower, A or B ? # reply format: chosen label
B

(I) Cc1cc2c(cnn2-c2ccc(F)cc2)cc1C1(Cc2ccccc2)CCN(S(=O)(=O)C2CCOCC2)C1 (stereo not drawn)
(II) CCCn1cc(S(=O)(=O)N2CCN(c3cc4cnn(-c5ccc(OC)nc5)c4cc3C)C[C@H]2C)cn1
(III) CCCn1cc(S(=O)(=O)N2CCN(c3cnc4c(cnn4-c4ccc(F)cc4)c3)CC23CC3)cn1
Order by IC50, ascending. Answer format: list of labels, ordered as asked.
I, III, II
